- measurement notes: yeast display, Sf9 membrane polyspecificity reagent, FACS + sequencing; frameworks hold sequencing errors

| seq string | polyreactivity (PSR sort gate) |
| --- | --- |
| QVQLVESGGGLVQAGGSLRLSRAASGFTLAYYAMGWYRQAPGKERELVAAITADTGTTYYADSVKGRFTISRDNAKNTVYLQMNSLKPEDTAVYYCATRDVFYDDDYWGQGTQVTVSS | high polyreactivity |
| QVQLQEIGGGLVQAGGSLRLSCAASGYIIPYYSMRWYRQAPGKERGLVACIAAGTTTNFADCVKGRFTISRDNAKNTVYLQMNSLKPEDAAVYFCAALNAFKTGDWYWGQGTQVTVSS | low polyreactivity |
| QVQLVESGGGLVPAGASLRLSCAASGSTSYVYAMGWYRKAPGKERELVAAISGSGGRTYYADSVKGRFTISRDNAKNTVYLQMNSLKPEDTAVYYCNAMPRPSYPFDYWGQGTQVTVSS | high polyreactivity |
| QVQLQERGGGLVQAGGSLRMSCAASGSIFVSVTMGWYRQAPGKERELVASIGRGSTTNHADSVKGLFTISRDNAKNIVYLLMNSLKPEDTAVYYCAALESYGKYHGYWGQGTQVTVSS | low polyreactivity |
| QVQLVESGGGLVQAGGSLRLSCAASGFTFFLYAMGWYRQAAGKERELGAAINSRGGSTYYADSVKGRFTLSRDNAKNTVYLQMNSLKPEDTAVYYCAAYIPRSYCGYDYGGQGTQVTVSS | high polyreactivity |
| QVQLVESGGGLVQAGGSLRLSSAASGFTFNANAMGWYRQAPGKERELVAVITRSGGRTYYADSVKGRFTISRDNAKNTVYLQMNSLKPEDTAVYYCAADIGYTYEYYYWGQGTQVTVSS | high polyreactivity |
| QVQLVESGGGLVQAGGSLRLSCAASGYTINPYAIGWYRQAPGKERELVATIRSSGSTNYADSVKGRFTISRDNAKYTVYLQRNSLKPEDTAVYYFAARTSGRTVRYYYWGQGTQVTVSS | high polyreactivity |
| QVQLVESGGGLVQAGGSLRLSCAASGSIFSGYAMGWYRQAPGKERELVAAITRSGGRTYYADSVKGRFTISRDNAKNTVYLQMNSLKPEDTAVYYCATLPRYYGYWGQGTQVTVSS | high polyreactivity |
| QVQLVESGGGLVQAGGSLRLSCAASGSIFLGYTMGWYRQAPGKERELVAAINSSGGSTYYADSVKGRFTISRDNAKNTVYLQMNSLKAEDTAVYYCADANSILLFDSWGQGTQVTVSS | low polyreactivity |
| QVQLVESGGGLVQAGGSLGLSCAASGRTFFDYAMGWYRQAPGKERELVAAINWSGGRTYYADSVKGRFSISRDNAKNTVYLQMNSLKPEDTAVYDCNVYTRGRYEYWGQGTQVTVSS | low polyreactivity |
| QVQLVESGGGLVQAGGSLRLSCAASGRTLYIYAMGWYRQAPGKERELVAAITRRGDSTYYADSVKGRFTISRDNAKNTVYLQMNSLKPEDTAVYYCAADFQDTSSQYDPAYEYWGQGTQVTVSS | low polyreactivity |
